system: MDA-MB-231 complex spheroids, growth inhibition; assay: Anticancer human tumor MDA-MB-231 cell line growth inhibition [Asc]; details: second compound 0.01 µM; first compound 0.1 µM; hits give low values;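 note: spheroids exposed to compounds for 7 days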
Measurement name: viability, T/C

Below, 3 compounds whose answers are already recorded.
[
  {
    "Compound": "NC1CCC(NC2CC2c2ccccc2)CC1 (centres undefined) + CNC(C)C(=O)NC1CN(S(=O)(=O)c2cccc(S(=O)(=O)N3CCC4CCC(C(=O)NC(c5ccccc5)c5ccccc5)N4C(=O)C(NC(=O)C(C)NC)C3)c2)CCC2CCC(C(=O)NC(c3ccccc3)c3ccccc3)N2C1=O",
    "Assayed system": "MDA-MB-231 complex spheroids, growth inhibition",
    "Experimental value": "3.46%"
  },
  {
    "Compound": "O=C(c1ccc(F)c(F)c1Nc1ccc(I)cc1F)N1CC(O)([C@@H]2CCCCN2)C1 + CNC(C)C(=O)NC1CN(S(=O)(=O)c2cccc(S(=O)(=O)N3CCC4CCC(C(=O)NC(c5ccccc5)c5ccccc5)N4C(=O)C(NC(=O)C(C)NC)C3)c2)CCC2CCC(C(=O)NC(c3ccccc3)c3ccccc3)N2C1=O",
    "Assayed system": "MDA-MB-231 complex spheroids, growth inhibition",
    "Experimental value": "1.24%"
  },
  {
    "Compound": "O=C(c1cc(Cc2n[nH]c(=O)c3ccccc23)ccc1F)N1CCN(C(=O)C2CC2)CC1 + CNC(C)C(=O)NC1CN(S(=O)(=O)c2cccc(S(=O)(=O)N3CCC4CCC(C(=O)NC(c5ccccc5)c5ccccc5)N4C(=O)C(NC(=O)C(C)NC)C3)c2)CCC2CCC(C(=O)NC(c3ccccc3)c3ccccc3)N2C1=O",
    "Assayed system": "MDA-MB-231 complex spheroids, growth inhibition",
    "Experimental value": "2.15%"
  }
]

Query: Check the records and state viability, T/C for C=CC(=O)N1CCN(c2nc(=O)n(-c3c(C)ccnc3C(C)C)c3nc(-c4c(O)cccc4F)c(F)cc23)C(C)C1 (centres undefined) + CNC(C)C(=O)NC1CN(S(=O)(=O)c2cccc(S(=O)(=O)N3CCC4CCC(C(=O)NC(c5ccccc5)c5ccccc5)N4C(=O)C(NC(=O)C(C)NC)C3)c2)CCC2CCC(C(=O)NC(c3ccccc3)c3ccccc3)N2C1=O
Result: 4.47%

* * *

test system: MDA-MB-231 complex spheroids, growth inhibition; assay: Anticancer human tumor MDA-MB-231 cell line growth inhibition [Asc]; settings: second compound 0.1 µM; first compound 0.0316 µM; active means viability on the fitted dose curve at most 10% of control; inactive means the rest;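 note: spheroids exposed to compounds for 7 days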
// classify into class 1 (active), class 0 (inactive)

[
  {
    "Molecule": "COc1c(OCCCN2CCOCC2)ccc2c3n(c(=NC(=O)c4cnc(N)nc4)nc12)CCN3 + CNC(C)C(=O)NC1CN(S(=O)(=O)c2cccc(S(=O)(=O)N3CCC4CCC(C(=O)NC(c5ccccc5)c5ccccc5)N4C(=O)C(NC(=O)C(C)NC)C3)c2)CCC2CCC(C(=O)NC(c3ccccc3)c3ccccc3)N2C1=O",
    "Classification": "class 1"
  }
]

Query: # fetch the recorded call for O=C(c1cc(Cc2n[nH]c(=O)c3ccccc23)ccc1F)N1CCN(C(=O)C2CC2)CC1 + Cc1c(S(C)(=O)=O)c(-c2cc(F)cc(N3CCN(c4ccc(NS(=O)(=O)c5ccc(NC(CCN6CCC(C(=O)OCCCP(=O)(O)O)CC6)CSc6ccccc6)c(S(=O)(=O)C(F)(F)F)c5)cc4)CC3)c2)c(-c2ccc(Cl)cc2)n1C(C)C here
Result: class 0

* * *

test system: MDA-MB-231 complex spheroids, growth inhibition; assay: Anticancer human tumor MDA-MB-231 cell line growth inhibition [Asc]; conditions: second compound 0.0949 µM; first compound 10 µM; hits give low values;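 note: spheroids exposed to compounds for 7 days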
Measurement name: viability, T/C (%)
Quick reminder: number only, in %, skip the unit.

[
  {
    "Molecule": "C=C(F)C(=O)N1CCN(c2nc(OCC3CCCN3C)nc3c2CCN(c2cccc4cccc(Cl)c24)C3)CC1CC#N (centres undefined) + CCN1C(C(=O)NC23CCC(C(=O)O)(CC2)CC3)C(c2cccc(Cl)c2F)C2(C(=O)Nc3cc(Cl)ccc32)C12CCCCC2",
    "viability, T/C [%]": 0.33
  },
  {
    "Molecule": "C=CC(=O)N1CCN(c2nc(=O)n(-c3c(C)ccnc3C(C)C)c3nc(-c4c(O)cccc4F)c(F)cc23)C(C)C1 (centres undefined) + CCN1C(C(=O)NC23CCC(C(=O)O)(CC2)CC3)C(c2cccc(Cl)c2F)C2(C(=O)Nc3cc(Cl)ccc32)C12CCCCC2",
    "viability, T/C [%]": 120
  },
  {
    "Molecule": "O=C(c1cc(Cc2n[nH]c(=O)c3ccccc23)ccc1F)N1CCN(C(=O)C2CC2)CC1 + CCN1C(C(=O)NC23CCC(C(=O)O)(CC2)CC3)C(c2cccc(Cl)c2F)C2(C(=O)Nc3cc(Cl)ccc32)C12CCCCC2",
    "viability, T/C [%]": 77.3
  }
]

Query: Supply reported viability, T/C belonging to this molecule: C#Cc1c(F)ccc2cc(O)cc(-c3ncc4c(N5CC6CCC(C5)N6)nc(OCC56CCCN5CC(F)C6)nc4c3F)c12 (centres undefined) + CCN1C(C(=O)NC23CCC(C(=O)O)(CC2)CC3)C(c2cccc(Cl)c2F)C2(C(=O)Nc3cc(Cl)ccc32)C12CCCCC2
Result: 48.1

* * *

system: MDA-MB-231 complex spheroids, growth inhibition; assay: Anticancer human tumor MDA-MB-231 cell line growth inhibition [Asc]; conditions: second compound 3.16 µM; first compound 0.316 µM; active means viability on the fitted dose curve at most 10% of control; inactive means the rest;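 note: spheroids exposed to compounds for 7 days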
Tick one outcome: True for active, False for inactive

Please review the following examples before continuing.
[
  {
    "Molecule": "O=C(c1ccc(F)c(F)c1Nc1ccc(I)cc1F)N1CC(O)([C@@H]2CCCCN2)C1 + Cc1c(S(C)(=O)=O)c(-c2cc(F)cc(N3CCN(c4ccc(NS(=O)(=O)c5ccc(NC(CCN6CCC(C(=O)OCCCP(=O)(O)O)CC6)CSc6ccccc6)c(S(=O)(=O)C(F)(F)F)c5)cc4)CC3)c2)c(-c2ccc(Cl)cc2)n1C(C)C",
    "Classification": "True"
  },
  {
    "Molecule": "CNC(C)C(=O)NC1CN(S(=O)(=O)c2cccc(S(=O)(=O)N3CCC4CCC(C(=O)NC(c5ccccc5)c5ccccc5)N4C(=O)C(NC(=O)C(C)NC)C3)c2)CCC2CCC(C(=O)NC(c3ccccc3)c3ccccc3)N2C1=O (stereo unspecified) + Cc1c(S(C)(=O)=O)c(-c2cc(F)cc(N3CCN(c4ccc(NS(=O)(=O)c5ccc(NC(CCN6CCC(C(=O)OCCCP(=O)(O)O)CC6)CSc6ccccc6)c(S(=O)(=O)C(F)(F)F)c5)cc4)CC3)c2)c(-c2ccc(Cl)cc2)n1C(C)C",
    "Classification": "True"
  },
  {
    "Molecule": "C#Cc1c(F)ccc2cc(O)cc(-c3ncc4c(N5CC6CCC(C5)N6)nc(OCC56CCCN5CC(F)C6)nc4c3F)c12 (stereo unspecified) + Cc1c(S(C)(=O)=O)c(-c2cc(F)cc(N3CCN(c4ccc(NS(=O)(=O)c5ccc(NC(CCN6CCC(C(=O)OCCCP(=O)(O)O)CC6)CSc6ccccc6)c(S(=O)(=O)C(F)(F)F)c5)cc4)CC3)c2)c(-c2ccc(Cl)cc2)n1C(C)C",
    "Classification": "False"
  },
  {
    "Molecule": "O=C(c1cc(Cc2n[nH]c(=O)c3ccccc23)ccc1F)N1CCN(C(=O)C2CC2)CC1 + Cc1c(S(C)(=O)=O)c(-c2cc(F)cc(N3CCN(c4ccc(NS(=O)(=O)c5ccc(NC(CCN6CCC(C(=O)OCCCP(=O)(O)O)CC6)CSc6ccccc6)c(S(=O)(=O)C(F)(F)F)c5)cc4)CC3)c2)c(-c2ccc(Cl)cc2)n1C(C)C",
    "Classification": "False"
  },
  {
    "Molecule": "CCN1CCN(Cc2ccc(Nc3ncc(F)c(-c4cc(F)c5nc(C)n(C(C)C)c5c4)n3)nc2)CC1 + Cc1c(S(C)(=O)=O)c(-c2cc(F)cc(N3CCN(c4ccc(NS(=O)(=O)c5ccc(NC(CCN6CCC(C(=O)OCCCP(=O)(O)O)CC6)CSc6ccccc6)c(S(=O)(=O)C(F)(F)F)c5)cc4)CC3)c2)c(-c2ccc(Cl)cc2)n1C(C)C",
    "Classification": "False"
  }
]

Attention now turns to another entry.
Query: What call does the record list for C=CC(=O)N1CCN(c2nc(=O)n(-c3c(C)ccnc3C(C)C)c3nc(-c4c(O)cccc4F)c(F)cc23)C(C)C1 (stereo unspecified) + Cc1c(S(C)(=O)=O)c(-c2cc(F)cc(N3CCN(c4ccc(NS(=O)(=O)c5ccc(NC(CCN6CCC(C(=O)OCCCP(=O)(O)O)CC6)CSc6ccccc6)c(S(=O)(=O)C(F)(F)F)c5)cc4)CC3)c2)c(-c2ccc(Cl)cc2)n1C(C)C ?
Result: False
